Biological target: Androgen Receptor (AR) in the LNCaP prostate carcinoma cell line (Homo sapiens, UniProt P10275, T878A)
Construct: cell based immuno-fluorescence assay using the LNCaP prostate epithelial cell line; host or cells: LNCaP clone FGC
Sequence (P10275 1-920 T878A): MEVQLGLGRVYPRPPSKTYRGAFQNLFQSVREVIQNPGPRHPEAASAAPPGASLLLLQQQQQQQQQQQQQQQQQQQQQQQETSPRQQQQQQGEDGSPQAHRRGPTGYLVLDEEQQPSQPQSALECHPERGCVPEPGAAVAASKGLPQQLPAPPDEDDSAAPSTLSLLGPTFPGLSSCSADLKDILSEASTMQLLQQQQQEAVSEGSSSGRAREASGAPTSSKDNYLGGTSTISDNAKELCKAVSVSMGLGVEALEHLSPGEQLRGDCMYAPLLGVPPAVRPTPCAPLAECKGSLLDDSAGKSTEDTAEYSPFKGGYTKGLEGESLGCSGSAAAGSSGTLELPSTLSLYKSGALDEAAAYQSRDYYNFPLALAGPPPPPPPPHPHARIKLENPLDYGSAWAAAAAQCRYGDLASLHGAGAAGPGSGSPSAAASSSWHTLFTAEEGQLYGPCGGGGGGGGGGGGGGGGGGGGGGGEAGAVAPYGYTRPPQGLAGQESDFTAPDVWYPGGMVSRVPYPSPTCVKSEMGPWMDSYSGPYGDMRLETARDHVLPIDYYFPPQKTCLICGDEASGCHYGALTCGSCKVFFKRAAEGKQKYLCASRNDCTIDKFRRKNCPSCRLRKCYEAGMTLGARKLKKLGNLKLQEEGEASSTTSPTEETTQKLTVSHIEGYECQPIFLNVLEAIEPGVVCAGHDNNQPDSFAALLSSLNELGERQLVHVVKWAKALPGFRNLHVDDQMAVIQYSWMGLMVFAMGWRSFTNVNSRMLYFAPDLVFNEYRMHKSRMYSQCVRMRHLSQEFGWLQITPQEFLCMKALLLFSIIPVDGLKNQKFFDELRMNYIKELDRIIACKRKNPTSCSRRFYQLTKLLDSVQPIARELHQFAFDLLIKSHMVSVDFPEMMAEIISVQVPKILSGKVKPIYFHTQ
Test: LNCaP Androgen Receptor Down-Regulation Cell Assay (immunofluorescence end point)
Type: cell-based
Conditions: LNCaP cells, compound incubation 20-22 hours, concentration giving 50% reduction of the AR signal
Protocol: The ability of compounds to reduce Androgen Receptor (AR) numbers was assessed in a cell based immuno-fluorescence assay using the LNCaP prostate epithelial cell line. This immunofluorescence end point assay measures the ability of a test compound to down-regulate and reduce measured levels of the AR in the LNCaP prostate carcinoma cell line (LNCaP clone FGC (CRL-1740) obtained from the American Type Culture Collection (ATCC)). […]
EXPERIMENTAL_ENDPOINT: IC50 (µM)

Recorded results for 5 compounds are shown here.
CHEMICAL_STRUCTURE | RESULT_UNITS | IC50
CC(=O)N1CCN(CCOc2ccc(C3CCN(C4=Nn5c(nnc5C(F)(F)F)CC4)CC3)cc2)C[C@@H]1C | µM | 0.32
FC(F)(F)c1nnc2n1N=C(N1CCN(Cc3c[nH]c4ccccc34)CC1)CC2 | µM | 8.6
FC(F)(F)CCCOc1ccc(C2CCN(C3=Nn4c(nnc4C(F)(F)F)CC3)CC2)cc1 | µM | 2.3
COCCN(C)C(=O)CCCOc1ccc(C2CCN(C3=Nn4c(nnc4C(F)(F)F)CC3)CC2)cc1 | µM | 1.3
CS(=O)(=O)N1CCN(CCCOc2ccc(C3CCN(C4=Nn5c(nnc5C(F)(F)F)CC4)CC3)cc2)CC1 | µM | 1

a = FC(F)(F)c1nnc2n1N=C(N1CCC(c3c[nH]c4ncccc34)CC1)CC2
b = CCc1nccn1CCOc1ccc(C2CCN(C3=Nn4c(nnc4C(F)(F)F)CC3)CC2)cc1
Task: Returns the identifier with the smallest measured IC50 among a and b . Mark your answer with the label of the selected entry.
Output: b

All values here come from patent US8258140B2.
